Test system: Bovine viral diarrhea virus 1
protocol-details: Antiviral activity against TSC-resistant Bovine viral diarrhea virus 1 harboring NS5B N264D/A392E double mutant infected in bovine MDBK cells assessed as reduction in virus induced cytopathic effect after 72 hrs by MTS/PES assay
Format: functional, cell-based
condition-info: Bovine viral diarrhea virus isolates and strains
pEC50: −log10 of the molar value.
pEC50: recorded values

Below, 2 molecules whose answers are already recorded.
1. COc1cc2c(cc1OC)/C(=N/NC(=S)Nc1ccc([N+](=O)[O-])cc1)CC2
< 5.00
2. NC(=S)N/N=C1\CCc2ccc([N+](=O)[O-])cc21
5.97

Here is another molecule to look at.
Data point: COc1cc2c(cc1OC)/C(=N/NC(N)=S)CC2 ; pEC50 = < 4.10
